target: HCV polymerase (Hepatitis C virus genotype 1b, UniProt Q9WMX2); construct: (His)6 (C); assay: biochemical; conditions: polymerase assay of Biological Example 1; read-out: NS5B polymerase IC50
ASSAY_METRIC: IC50 (nM)

Before answering, review these 5 worked examples.
[[record]]
compound = "CNC(=O)c1c(-c2ccc(F)cc2)oc2nc(N(C)S(C)(=O)=O)c(C)cc12"
assay_metric = "IC50"
units = "nM"
reading = 256

[[record]]
compound = "CNC(=O)c1c(-c2ccc(F)cc2)oc2nc3c(cc12)[C@@H](C)C[C@H](O)CN3S(C)(=O)=O (single isomer, unassigned)"
assay_metric = "IC50"
units = "nM"
reading = 9

[[record]]
compound = "CNC(=O)c1c(-c2ccc(F)cc2)oc2nc(N(C)S(C)(=O)=O)c(CCCCC(=O)N3CCC[C@H]3C(N)=O)cc12"
assay_metric = "IC50"
units = "nM"
reading = 51

[[record]]
compound = "CCc1cc2c(C(=O)NC)c(-c3ccc(F)cc3)oc2nc1N(CC[C@H]1COc2c(OC)cccc21)S(C)(=O)=O"
assay_metric = "IC50"
units = "nM"
reading = 23

[[record]]
compound = "CNC(=O)c1c(-c2ccc(F)cc2)oc2nc(N(CCCS(C)(=O)=O)S(C)(=O)=O)c(C3CC3)cc12"
assay_metric = "IC50"
units = "nM"
reading = 1


a: CCc1cc2c(C(=O)NC)c(-c3ccc(F)cc3)oc2nc1N(CCCS(=O)(=O)CC)S(C)(=O)=O
b: CNC(=O)c1c(-c2ccc(F)cc2)oc2nc(N(C)S(C)(=O)=O)c(C(C)(F)F)cc12
Query: In terms of reported IC50, does a or b have the smaller number? Respond with the label that goes with your answer.
Reply: a
(a: 67 nM, b: 125 nM)

----------
molecular target: HCV polymerase (Hepatitis C virus genotype 1b, UniProt Q9WMX2); construct: (His)6 (C); test: biochemical; settings: polymerase assay of Biological Example 1; read-out: NS5B polymerase IC50
ASSAY_METRIC: IC50 (nM)

[[record]]
molecular_string = "CNC(=O)c1c(-c2ccc(C)cc2)oc2nc(N(CCCCC(=O)OC)S(C)(=O)=O)c(C3CC3)cc12"
assay_metric = "IC50"
reading = 3

[[record]]
molecular_string = "CNC(=O)c1c(-c2ccc(F)cc2)oc2nc(N(CCCC(C)(C)C(=O)O)S(C)(=O)=O)c(C3CC3)cc12"
assay_metric = "IC50"
reading = 12


a: CCc1cc2c(C(=O)NC)c(-c3ccc(F)cc3)oc2nc1N(CCCC1=C(O)CCC1=O)S(C)(=O)=O
b: CCc1cc2c(C(=O)NC)c(-c3ccc(F)cc3)oc2nc1N(CCCCC(=O)O)S(C)(=O)=O
c: CCc1cc2c(C(=O)NC)c(-c3ccc(F)cc3)oc2nc1N(CCc1cccc(OC)c1)S(C)(=O)=O
d: CCc1ccc(-c2oc3nc(N(CCCC4(C(=O)O)CC4)S(C)(=O)=O)c(C4CC4)cc3c2C(=O)NC)cc1
e: CNC(=O)c1c(-c2ccc(F)cc2)oc2nc(N(CCN(C)S(C)(=O)=O)S(C)(=O)=O)c(I)cc12
Query: I would appreciate it if you could sort these 5 compounds by IC50, starting from the smallest number. Use the labels to give the ranking in the order requested.
Reply: d, b, a, e, c
(d: 2 nM, b: 12 nM, a: 29 nM, e: 242 nM, c: 772 nM)

----------
target: HCV polymerase (Hepatitis C virus genotype 1b); construct: (His)6 (C); test: biochemical; conditions: polymerase assay of Biological Example 1; read-out: NS5B polymerase IC50
pIC50: −log10 of the molar value.
ASSAY_METRIC: pIC50

A: CNC(=O)c1c(-c2ccc(C)cc2)oc2nc(N(CCCC3(C(=O)O)CC3)S(C)(=O)=O)c(C3CC3)cc12
B: CNC(=O)c1c(-c2ccc(C)cc2)oc2nc(N(CCCNCCCC(=O)O)S(C)(=O)=O)c(C3CC3)cc12
Query: Could you please tell me which of these two has the higher pIC50: A or B ? Reply with the label of the item you choose.
Reply: A

----------
target: HCV polymerase (Hepatitis C virus genotype 1b, UniProt Q9WMX2); construct: (His)6 (C); test: biochemical; conditions: polymerase assay of Biological Example 1; read-out: NS5B polymerase IC50
ASSAY_METRIC: IC50 (nM)

[[record]]
molecular_string = "CNC(=O)c1c(-c2ccc(F)cc2)oc2nc(N(C)S(C)(=O)=O)c(CCCC(N)=O)cc12"
reading = 132


I: CNC(=O)c1c(-c2ccc(F)cc2)oc2nc3c(cc12)CCCCN3S(C)(=O)=O
II: CCc1cc2c(C(=O)NC)c(-c3ccc(F)cc3)oc2nc1N(CCc1ccncc1)S(C)(=O)=O
Query: Form field 'greater IC50' accepts I or II ; which applies? Mark your answer with the label of the selected entry.
Reply: I

----------
target: HCV polymerase (Hepatitis C virus genotype 1b); construct: (His)6 (C); assay: biochemical; settings: polymerase assay of Biological Example 1; read-out: NS5B polymerase IC50
pIC50: −log10 of the molar value.
ASSAY_METRIC: pIC50

[[record]]
compound = "CNC(=O)c1c(-c2ccc(C)cc2)oc2nc(N(CCCC[C@H](COC)C(=O)O)S(C)(=O)=O)c(C3CC3)cc12"
assay_metric = "pIC50"
reading = 8.52

[[record]]
compound = "CNC(=O)c1c(-c2ccc(F)cc2)oc2nc(N(C)S(C)(=O)=O)c(CCCCC(C)(O)C(C)(C)O)cc12 (centres unmarked)"
assay_metric = "pIC50"
reading = 7.12

[[record]]
compound = "CCc1ccc(-c2oc3nc(N(CCCC(C)C(=O)O)S(C)(=O)=O)c(C4CC4)cc3c2C(=O)NC)cc1 (centres unmarked)"
assay_metric = "pIC50"
reading = 8.70

[[record]]
compound = "CNC(=O)c1c(-c2ccc(C)cc2)oc2nc(N(CCC[C@H](COC)C(=O)N3C(=O)OC[C@@H]3Cc3ccccc3)S(C)(=O)=O)c(I)cc12"
assay_metric = "pIC50"
reading = 7.59

[[record]]
compound = "CNC(=O)c1c(-c2ccc(F)cc2)oc2nc(N(C)S(C)(=O)=O)c(CCCCC(=O)N3CCC[C@H]3C(=O)OC)cc12"
assay_metric = "pIC50"
reading = 6.95


P: CNC(=O)c1c(-c2ccc(C)cc2)oc2nc(N(CCCCCO)S(C)(=O)=O)c(I)cc12
Q: CNC(=O)c1c(-c2ccc(C)c(C)c2)oc2nc(N(CCCCC(=O)O)S(C)(=O)=O)c(C3CC3)cc12
Query: Return label of the item with the larger pIC50. Candidates: P , Q . Your choice should be expressed through its label.
Reply: Q

----------
The reader will find reported pIC50 values listed item by item below.
biological target: HCV polymerase (Hepatitis C virus genotype 1b, UniProt Q9WMX2); construct: (His)6 (C); assay: biochemical; conditions: polymerase assay of Biological Example 1; read-out: NS5B polymerase IC50
pIC50 here: minus log base 10 of the concentration, concentration in moles per litre.

Look over these answered cases.
[[record]]
compound = "CCc1ccc(-c2oc3nc(N(C)S(C)(=O)=O)c(C4CC4)cc3c2C(=O)NC)cc1"
reading = 8.52

[[record]]
compound = "C=Cc1cc2c(C(=O)NC)c(-c3ccc(F)cc3)oc2nc1N(CCCC(=O)OC)S(C)(=O)=O"
reading = 7.38

[[record]]
compound = "CNC(=O)c1c(-c2ccc(F)cc2)oc2nc(N(CCCCC(=O)OC)S(C)(=O)=O)c(C3CC3)cc12"
reading = 8.30

[[record]]
compound = "CNC(=O)c1c(-c2ccc(Cl)cc2)oc2nc(N(CCC[C@@H]3CCCS3(=O)=O)S(C)(=O)=O)c(C3CC3)cc12"
reading = 9.00

[[record]]
compound = "CNC(=O)c1c(-c2ccc(C3CC3)cc2)oc2nc(N(CCCS(C)(=O)=O)S(C)(=O)=O)c(C3CC3)cc12"
reading = 8.52


Query: Look up and report measured pIC50 for this entry: CNC(=O)c1c(-c2ccc(F)cc2)oc2nc(N(CCCC3CCCS3(=O)=O)S(C)(=O)=O)c(C3CC3)cc12 (racemic) [Example 24.4]
Reply: 8.05

----------
target: HCV polymerase (Hepatitis C virus genotype 1b); construct: (His)6 (C); assay: biochemical; settings: polymerase assay of Biological Example 1; read-out: NS5B polymerase IC50
ASSAY_METRIC: IC50 (nM)
Numbers only; they are read as nM.

[[record]]
compound = "CNC(=O)c1c(-c2ccc(F)cc2)oc2nc(N(C)S(C)(=O)=O)c(C(C)=O)cc12"
assay_metric = "IC50"
reading = 467

[[record]]
compound = "CCc1cc2c(C(=O)NC)c(-c3ccc(F)cc3)oc2nc1N(CCCS(=O)(=O)c1ccccc1)S(C)(=O)=O"
assay_metric = "IC50"
reading = 3

[[record]]
compound = "CNC(=O)c1c(-c2ccc(F)cc2)oc2nc3c(cc12)C(C)OCCN3S(C)(=O)=O (centres unmarked)"
assay_metric = "IC50"
reading = 35

[[record]]
compound = "CNC(=O)c1c(-c2ccc(C)cc2)oc2nc(N(CCC3CCS(=O)(=O)C3)S(C)(=O)=O)c(C3CC3)cc12 (centres unmarked)"
assay_metric = "IC50"
reading = 1


Shift focus to the following entry.
Query: Output IC50 of CNC(=O)c1c(-c2ccc(C3CC3)cc2)oc2nc(N(CCCC3CCCS3(=O)=O)S(C)(=O)=O)c(C3CC3)cc12 (centres unmarked)
Reply: 1
